// provenance: ChEMBL document CHEMBL3399922

# Tested on: Anopheles gambiae
# PROTOCOL DESCRIPTION: Tarsal contact toxicity in Anopheles gambiae G3 (MRA-112) assessed as mortality measured at 1000 ug/mL at 24 hrs by filter paper assay
# Type: functional
# maps each entry to its mortality at 1000 µg/mL
REPORTED PROPERTY: mortality at 1000 µg/mL (%)

In [3]: df
Out[3]:
                                    compound  reported_result
 0             CN(C)C(=O)Oc1cc(CC(C)(C)C)on1                0
 1  CCCCC(CC)c1cc(OC(=O)N(C)C)no1 (stereo unspecified)                0
 2  CCCC(C)c1cc(OC(=O)N2CCCC2)no1 (stereo unspecified)                0
 3            CN(C)C(=O)n1oc(CC(C)(C)C)cc1=O               80
 4  CCCC(C)c1cc(=O)n(C(=O)N2CCCC2)o1 (stereo unspecified)               77
 5  CCCC(C)c1cc(=O)n(C(=O)N2CCC2)o1 (stereo unspecified)               78
 6               CCC(CC)c1cc(OC(=O)N(C)C)no1               70
 7                 CN(C)C(=O)Oc1cc(C2CC2)on1                0
 8  CCCC(C)c1cc(=O)n(C(=O)N(CC)CC)o1 (stereo unspecified)               15
 9  CCCC(C)c1cc(OC(=O)N2CCOCC2)no1 (stereo unspecified)               10
10             CN(C)C(=O)n1oc(CCC2CCC2)cc1=O               30
